Target Entity: T1, Human IL-11 (human, UniProt P20809 22-199); also: test concentration or dose not given here
T1 sequence: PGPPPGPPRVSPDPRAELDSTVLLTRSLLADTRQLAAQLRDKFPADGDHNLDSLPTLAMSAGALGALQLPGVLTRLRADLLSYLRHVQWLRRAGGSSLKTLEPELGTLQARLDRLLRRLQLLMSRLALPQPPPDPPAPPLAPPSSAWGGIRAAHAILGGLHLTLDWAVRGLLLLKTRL
Assay Notes: cell-based or functional assay
Property Label: MMP2 production, Experiment 2 (human atrial fibroblasts + TGFB1) (ng/mL)
Record the value in ng/mL, omitting the unit from your answer.

// solved cases for MMP2 production, Experiment 2 (human atrial fibroblasts + TGFB1) follow
Binder	Result Number
YU100-E05 (antibody) EVQLVQSGGGVVQPGRSLRLSCAASGFTFSSYGMHWVRQAPGKGLEWVAVISYDGSNKYYADSVKGRFTISRDNSKNTLYLQMNSLRAEDTAVYYCAKIGATDPLDYWGQGTLVTVSSGSASAPKLEEGEFSEARVQAVLTQPRSVSGSPGQSVTISCTGTSSDVGGYNYVSWYQQHPGKAPKLMIYDVSKRPSGVPDRFSGSKSGNTASLTISGLQAEDEADYYCCSYAGSYSWVFGGGTKLTVLGQPKAAPSVTLFPPSS	50.2
YU112-A07 (antibody) QVQLVESGGGVVQPGRSLRLSCAASGFTFSSYGMHWVRQAPGKGLEWVAVISYDGSNKYYTDSVKGRFTISRDNSKNTLYLQMNSLRAEDTAVYYCAKIGATDPLDYWGQGTLVTVSSGSASAPKLEEGEFSEARVQSALTQPRSVSGSPGQSVTISCTGTISDVGGYNYVSWYQQHPGKAPKLMIYDVTKRPSGVPDRFSGSKSGNTASLTISGLQAEDEAGYYCSSYAGSYTWVFGGGTELTVL	45
YU100-F02 (antibody) EVQLVESGGGVVQPGRSLRLSCAASGFTFSSYGMHWVRQAPGKGLEWVAVISYDGSNKYYADSVKGRFTISRDNSKNTLYLQMNSLRAEDTAVYYCAKIGATDPLDYWGQGTLVTVSSGSASAPKLEEGEFSEARVQSALTQPRSVSGSPGQSVTISCTGTSSDVGGYNYVSWYQQHPGKAPKLMIYDVTKRPSGVPDRFSGSKSGNTASLTISGLQADDEADYYCCSYAGSYTWIFGGGTKLTVL	43.5

Exercise: // lookup MMP2 production, Experiment 2 (human atrial fibroblasts + TGFB1) for YU100-D05 (antibody) QVQLQQSGGGVVQPGRSLRLSCAASGFTFSSYGMHWVRQAPGKGLEWVAVISYDGSNKYYADSVKGRFTISRDNSKNTLYLQMNSLRAEDTAVYYCAKIGATDPLDYWGQGTLVTVSSGSASAPKLEEGEFSEARVQSALTQPASVSGSPGQLITISCTGTNSDVGGYNYVSWYQQHPGKAPKLMIYDVSNRPSGVSNRFSGSKSGNTASLTISGLQAEDEADYYCCSYAGSYTWVFGGGTKLTVLGQPKAAPSVTLFPPSS
Key: 48.8

Exercise: Name the reported MMP2 production, Experiment 2 (human atrial fibroblasts + TGFB1) value associated with the binder YU100-H11 (antibody) QVQLVQSGGGVVQPGRSLRLSCAASGFTFSSYGMHWVRQAPGKGLEWVAVISYDGSNKYYADSVKGRFTISRDNSKNTLYLQMNSLRAEDTAVYYCAKIGATDPLDYWGQGTLVTVSSGSASAPKLEEGEFSEARVQSALTQPASVSGSPGQSITISCTGTSSDVGGYNYVSWYQQHPGKAPKLMIYDVSNRPSGVSNRFSGSKSGNTASLTISGLQAEDEADYYCCSYAGSYTWVFGGGTKLTVL
Key: 45.5
